recorded-endpoint: melting point

1. CCOC(=O)n1nc2c(c1N)CN(C(=O)N[C@H](CN(C)C)c1ccccc1)C2(C)C; 96 to 97 °C
2. CCCCCCS(=O)(=O)c1c(Br)cc(N)cc1Br; 192 to 194 °C
3. CCCCP(=CC#N)(CCCC)CCCC; 131 to 132 °C
4. Nc1nc(=O)n(C(=O)Oc2ccccc2)cc1F; 175 to 180 °C
5. CC1(C)OC(=O)N(c2cccc(C#CC#N)c2)c2ccccc21; 212 to 213 °C
6. CN1C(=O)N(CC(CS(=O)(=O)c2ccc(-c3ccc(Cl)cc3)cc2)C(=O)O)C(=O)C1(C)C (stereo unspecified); 148 to 150 °C
7. COC(=O)C1(CCN(C)C)c2ccccc2N(C)c2ccc(Cl)cc21 (stereo unspecified); 106 °C
8. CCCCCCCCC=CCCCCCCCC(N)=O; 68 °C
9. CC(C)=CCN1CCOC(CN2c3ccccc3C=Cc3ccccc32)C1 (stereo unspecified); 99 to 100 °C
10. O=c1[nH]c2cscc2c(=O)n1CCN1CCC(=C(c2ccc(F)cc2)c2ccc(F)cc2)CC1; 204 to 206 °C
11. CCOCC1N=NC(=S)N1C (stereo unspecified); 137 to 138 °C

* * *

Listing: melting point of selected compounds
recorded-endpoint: melting point

1. C/C(=C\c1ccc(-c2ccccc2)cc1)C(=O)O; 178 °C
2. COC1(OCCc2nc(C(C)C)c(Sc3cc(Cl)cc(Cl)c3)n2C)CCCCCCC1; 54 to 56 °C
3. c1ccc(OC(Oc2ccccc2)Oc2c3ccccc3cc3ccccc23)cc1; 90 to 92 °C
4. O=C(NCc1ccccn1)c1ccc(C2=NOC(c3cc(Cl)cc(Cl)c3)(C(F)(F)F)C2)cc1C(F)(F)F (stereo not given); 69 to 70 °C
5. O=C(c1ccccc1)N1CCCC1c1cccc(O)c1 (stereo not given); 167 to 169 °C

* * *

recorded-endpoint: melting point

1) Nc1c(Br)cc(Cc2cc(Br)c(N)c(Br)c2)cc1Br; > 250 °C
2) O=C(c1ccc(CBr)cc1)c1ccc([N+](=O)[O-])cc1; 113 °C
3) COc1ccc(C(C#N)SC2CCCCC2)cc1OC (stereo not given); 80 to 82 °C
4) Cc1ccc(N(C)S(=O)(=O)c2cccnc2Cl)c2[nH]c(C3=NCC(CN4CCOCC4)S3)cc12 (stereo not given); 151 to 153 °C
5) CCOP(=O)(OCC)C(O)c1cccc(F)c1 (stereo not given); 81 to 82 °C
6) CSCCCn1cc(C(=O)NCc2ccc(Cl)cc2)c(=O)c2cc(CN3CCOCC3)ccc21; 102 to 104 °C
7) CC(=O)Nc1c([N+](=O)[O-])cc(Br)c2c1CCN(C(C)=O)C2; 171 °C
8) Cc1oc(-c2ccc(F)cc2)cc1C(C)O (stereo not given); 50 to 52 °C
9) CCCC1=C(C(=O)OCC)C(c2ccccc2Cl)c2cn(C)nc2N1 (stereo not given); 150 to 151 °C
10) Cc1nc(Cl)cc(C2(c3ccc(Cl)cc3)CCC2)n1; 96 to 98 °C

* * *

Listing: melting point of selected compounds
recorded-endpoint: melting point

1. CCCCOc1c(N(C)C(=O)OC(C)(C)C)n(CC2CC2)c(=O)c2ccc(OCC(N)=O)cc12; 209 to 210 °C
2. CC(C)(C)N1C(=O)c2cnc(CCl)cc2C1=O; 62 to 64 °C
3. COc1cc(C(C)C)c2c(c1)S(=O)(=O)N(COc1cc(C(F)(F)F)nn1-c1ccccn1)C2=O; 132 to 133 °C
4. CC1C(c2ccccc2)NC(c2ccccc2)C(C)C1OC(=O)CCCCCCCCC(=O)OC1C(C)C(c2ccccc2)NC(c2ccccc2)C1C (centres undefined); 128 to 135 °C
5. CC(=O)CC(=O)Nc1ccc(Br)cc1C; 109 °C
6. CCOC(=O)c1c(CN(CC)CC)nc2cc(OC)c(OC)cc2c1-c1ccc(F)cc1; 102 to 103 °C
7. CCNC(=O)c1ccccc1Nc1nc(Nc2cc3c(cc2OC)CCN(CC(=O)NC)CC3)ncc1Cl; 99 to 110 °C
8. NS(=O)(=O)c1ccc(-n2nc(CCNC(=O)Nc3cccc(C(F)(F)F)c3)cc2-c2ccccc2)cc1; 122 to 125 °C
9. Cc1oc(-c2ccco2)nc1CCOc1ccc(C#N)cc1; 105 to 108 °C
